Protein target, amino acids: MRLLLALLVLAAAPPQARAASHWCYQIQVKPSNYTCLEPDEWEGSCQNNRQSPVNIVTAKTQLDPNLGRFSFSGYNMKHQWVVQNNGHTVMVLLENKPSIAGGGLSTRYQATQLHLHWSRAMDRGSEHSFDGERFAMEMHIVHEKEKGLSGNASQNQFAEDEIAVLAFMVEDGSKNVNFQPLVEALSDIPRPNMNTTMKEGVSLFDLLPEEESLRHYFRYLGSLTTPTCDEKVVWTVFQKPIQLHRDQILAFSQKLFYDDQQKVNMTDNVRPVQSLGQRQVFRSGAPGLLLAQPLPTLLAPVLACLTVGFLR
I'd be grateful if you could share measured log10 of Ki for these entries.
Recorded Ki (log10, nM)

Return reported log10 of Ki; argument: C[C@H](CCC(=O)/N=c1\sc(S(N)(=O)=O)nn1C)[C@H]1CC[C@H]2[C@@H]3[C@@H](O)C[C@@H]4C[C@H](O)CC[C@]4(C)[C@H]3CC[C@]12C
1.23

What value of log10 of Ki has been recorded for this entry: C[C@H](CCC(=O)NNc1ccc(S(N)(=O)=O)cc1)[C@H]1CC[C@H]2[C@@H]3[C@H](O)C[C@@H]4C[C@H](O)CC[C@]4(C)[C@H]3CC[C@]12C
2.93

Query (compound): C[C@H](CCC(=O)Nc1nnc(S(N)(=O)=O)s1)[C@H]1CC[C@H]2[C@@H]3CC[C@@H]4C[C@H](O)CC[C@]4(C)[C@H]3CC[C@]12C ; field requested: log10 of Ki
1.45

What does the record list as log10 of Ki for C[C@H](CCC(=O)Oc1ccc2nc(S(N)(=O)=O)sc2c1)[C@H]1CC[C@H]2[C@@H]3CC[C@@H]4C[C@H](O)CC[C@]4(C)[C@H]3C[C@H](O)[C@]12C ?
0.95

Name the recorded log10 of Ki for C[C@H](CCC(=O)NNc1ccc(S(N)(=O)=O)cc1)[C@H]1CC[C@H]2[C@@H]3[C@H](O)C[C@@H]4C[C@H](O)CC[C@]4(C)[C@H]3C[C@H](O)[C@]12C .
3.02
